- target: human CD33 T292A (human, UniProt P20138 18-364)
- Sequence (P20138 18-364 T292A limits assumed): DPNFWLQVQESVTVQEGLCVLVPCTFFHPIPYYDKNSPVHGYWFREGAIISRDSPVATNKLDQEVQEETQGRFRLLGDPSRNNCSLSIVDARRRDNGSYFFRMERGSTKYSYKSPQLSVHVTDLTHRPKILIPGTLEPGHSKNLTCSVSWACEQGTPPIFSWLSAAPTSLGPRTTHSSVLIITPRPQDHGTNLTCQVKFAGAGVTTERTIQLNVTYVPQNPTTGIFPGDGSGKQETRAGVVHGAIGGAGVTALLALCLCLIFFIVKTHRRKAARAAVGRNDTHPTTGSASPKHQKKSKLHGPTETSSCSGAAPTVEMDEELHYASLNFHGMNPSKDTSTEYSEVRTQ
- protocolText: alanine scan, flow cytometry, HEK293-T;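 also: antibody binding to each alanine-substituted CD33 mutant expressed transiently in HEK293-T, read as fluorescence minus background, mean of duplicates, relative to wild-type CD33 set as 100%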
outcomeMeasure: Mean % WT Binding (% WT binding)
Respond numerically; units are % WT binding and should not be typed.

Exercise: # Mean % WT Binding lookup, item Refmab #3 (antibody, V domains shown, The alanine scan used IgG or Fab) VH: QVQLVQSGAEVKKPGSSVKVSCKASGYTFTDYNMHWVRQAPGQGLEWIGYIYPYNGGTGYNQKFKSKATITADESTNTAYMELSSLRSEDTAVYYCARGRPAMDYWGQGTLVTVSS VL: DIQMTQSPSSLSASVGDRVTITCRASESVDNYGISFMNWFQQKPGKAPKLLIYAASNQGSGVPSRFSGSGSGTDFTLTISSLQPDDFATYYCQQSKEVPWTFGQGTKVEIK
Key: 99.6

Exercise: # Mean % WT Binding lookup, item Refmab #1 (antibody, V domains shown, The alanine scan used IgG or Fab; also called hP67.6) VH: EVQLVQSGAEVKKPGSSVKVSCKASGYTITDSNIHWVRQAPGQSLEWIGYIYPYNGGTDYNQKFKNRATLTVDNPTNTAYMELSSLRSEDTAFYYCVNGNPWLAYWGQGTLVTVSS VL: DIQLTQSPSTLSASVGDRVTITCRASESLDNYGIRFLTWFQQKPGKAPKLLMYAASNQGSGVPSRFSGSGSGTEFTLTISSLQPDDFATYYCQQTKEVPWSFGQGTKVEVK
Key: 89.5

Exercise: # Mean % WT Binding lookup, item Refmab #4 (antibody, V domains shown, The alanine scan used IgG or Fab) VH: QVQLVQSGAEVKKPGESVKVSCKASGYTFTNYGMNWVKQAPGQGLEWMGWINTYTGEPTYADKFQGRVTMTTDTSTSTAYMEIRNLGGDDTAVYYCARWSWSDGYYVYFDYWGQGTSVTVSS VL: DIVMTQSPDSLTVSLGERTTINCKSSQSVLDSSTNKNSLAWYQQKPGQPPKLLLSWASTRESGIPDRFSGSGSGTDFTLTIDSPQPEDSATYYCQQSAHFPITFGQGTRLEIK
Key: 100

Exercise: # Mean % WT Binding lookup, item Refmab #2 (antibody, V domains shown, The alanine scan used IgG or Fab) VH: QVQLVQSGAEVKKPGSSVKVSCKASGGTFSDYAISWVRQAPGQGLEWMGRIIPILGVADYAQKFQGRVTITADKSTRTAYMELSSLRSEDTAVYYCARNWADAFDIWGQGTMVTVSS VL: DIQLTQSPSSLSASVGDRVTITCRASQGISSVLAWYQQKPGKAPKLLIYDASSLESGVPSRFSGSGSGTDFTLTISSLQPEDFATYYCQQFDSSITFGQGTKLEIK
Key: 94.2

Reference source for all entries: patent US20260242735A1
